System: mice, LPC-1 plasma cell tumor ip, median survival T/C
assay remarks: NCI In Vivo Anticancer Drug Screen. Data for tumor model Lieberman Plasma Cell No. 1 (LPC-1) (intraperitoneal) in unknown mice
measurement setup: endpoint: median survival time; dose: 2.0 mg/kg/injection; schedule: Q01DX028 (sc); vehicle: saline
Inconclusive results and toxic doses are left out. The calls were made as follows: active = survival T/C of 150% or more; inactive = T/C below 125% in these data.
Mark one answer only. Choices: active, inactive

Dear all, I need the recorded test outcome for `CO[C@@]12[C@H](COC(N)=O)C3=C(C(=O)C(C)=C(N)C3=O)N1C[C@@H]1N[C@@H]12` , thank you.
inactive

Dear all, I need the recorded test outcome for O=P1(N(CCCl)CCCl)NCCCO1 (stereo not given) , thank you.
inactive

Dear all, I need the recorded test outcome for COC12C(COC(N)=O)C3=C(C(=O)C(C)=C(N)C3=O)N1CC1C2N1C (stereo not given) , thank you.
active

Dear all, I need the recorded test outcome for `CC[C@H]1CN2CCc3cc(OC)c(OC)cc3[C@@H]2C[C@@H]1C[C@H]1NCCc2cc(OC)c(OC)cc21` , thank you.
inactive

Dear all, I need the recorded test outcome for `O=c1[nH]cc(F)c(=O)[nH]1` , thank you.
inactive
